Hey, just so you know, these numbers are from the RNAGym collection of RNA variant scans (doi:10.1073/pnas.2313332121).

B1: TPR 5TU (parent)
chain: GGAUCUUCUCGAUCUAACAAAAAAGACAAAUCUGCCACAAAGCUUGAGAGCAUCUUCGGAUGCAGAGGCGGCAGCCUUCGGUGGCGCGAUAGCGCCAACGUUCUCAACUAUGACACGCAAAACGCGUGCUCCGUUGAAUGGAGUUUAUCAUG

# Variants of: B1
# experiment-summary: polymerase ribozyme fitness, log enrichment relative to wild type (log ratio); higher = more active; in vitro selection for triplet polymerase activity
Variants at the floor of the assay were thinned out.
parameter: polymerase ribozyme fitness (log ratio)

U6C U82A C99U G136U: -3.43
C35U U53A: -0.557
A26U G81A: -1.66
A52C A113U: -3.88
C63A: 0.15
A26U C96U: -1.62
